# procedure details: in vitro
# condition set: human, hela cells, % viability
experimental readout: viability at 28.5 h, 10 µM (%)
The reply should be a number in %, with the unit left off.

CN(CCCC(=O)O)c1nc(-c2ccc(Br)cc2)cs1 [CBK299834]; 88.6
COc1cccc(Cc2c(C)nc3c(C(=O)NCCCN4CCCC4=O)cnn3c2C)c1 [CBK162055]; 111
COCc1cn([C@H]2CO[C@H]3[C@@H]2OC[C@@H]3NC(=O)c2ccc(OC)cc2)nn1 [CBK289494]; 115
CCCNC(=O)N1CCCC(Cc2ccc(F)cc2F)(C(=O)OCC)C1 (stereo not shown) [CBK307031]; 94.2
Cc1c(-c2ccccc2)n[nH]c1C(=O)NCCCc1ccccn1 [CBK282445]; 89

Ask: // lookup viability at 28.5 h, 10 µM for CN1CCCN(c2cncc(-c3ccc(F)cc3F)n2)CC1 [CBK065858]
Result: 97.9

Ask: // lookup viability at 28.5 h, 10 µM for COc1ccc([C@@H]2CCN(C(=O)Cc3ccc(F)cc3)C[C@H]2O)cc1 [CBK283709]
Result: 88.8

Ask: // lookup viability at 28.5 h, 10 µM for Cc1noc(C)c1CN1CCN(CC(CC(=O)Nc2ccccc2)C(=O)O)CC1 (stereo not shown) [CBK286858]
Result: 83.2

Ask: // lookup viability at 28.5 h, 10 µM for O=C(N1CCC=C(F)C1)C12CCOCC1CN(c1ncccn1)C2 (stereo not shown) [CBK304264]
Result: 91.3

Ask: // lookup viability at 28.5 h, 10 µM for COc1ccc(NC(=O)CSc2cnn[nH]2)c(OC)c1 [CBK269969]
Result: 76.7

Ask: // lookup viability at 28.5 h, 10 µM for CC(C)CNC(=O)N1CCN(C2CCN(C)CC2)CC1 [CBK155902]
Result: 95.3

Ask: // lookup viability at 28.5 h, 10 µM for Cc1ccc(N2CC(C(=O)NCCc3ccc(S(N)(=O)=O)cc3)CC2=O)cc1 (stereo not shown) [CBK267531]
Result: 84.4

Ask: // lookup viability at 28.5 h, 10 µM for CN1CCN(c2ccccc2NC(=O)CSc2ccc(Cl)cc2)CC1 [CBK267941]
Result: 98.9

Ask: // lookup viability at 28.5 h, 10 µM for O=C1c2ccc(-c3ccc4c(c3)C(=O)N(Cc3ccco3)C4=O)cc2C(=O)N1Cc1ccco1 [CBK266578]
Result: 93.3

Ask: // lookup viability at 28.5 h, 10 µM for CCc1ccc(CN(C(=O)c2cc(OC)c(OC)c(OC)c2)C2CCS(=O)(=O)C2)cc1 (stereo not shown) [CBK293961]
Result: 98.4

Ask: // lookup viability at 28.5 h, 10 µM for O=C(NCCc1ccccc1)c1nc(-c2ccncc2)cs1 [CBK288604]
Result: 70

Ask: // lookup viability at 28.5 h, 10 µM for NC(=O)NC(CC(=O)N1CCc2sccc2C1)c1cccc(Br)c1 (stereo not shown) [CBK305813]
Result: 95

Ask: // lookup viability at 28.5 h, 10 µM for CC(=O)N1CCC(C(=O)NC(=O)Nc2cccc(C)c2)CC1 [CBK034854]
Result: 94.3

Ask: // lookup viability at 28.5 h, 10 µM for Cc1ccc(S(=O)(=O)Nc2sc3c(c2C(=O)N2CCN(C)CC2)CCCC3)cc1[N+](=O)[O-] [CBK028650]
Result: 93.9

----------
# procedure details: in vitro
# condition set: human, hela cells, % viability
viability at 28.5 h, 10 µM reference
The reply should be a number in %, with the unit left off.

CC(C)n1c(=O)n(CC(=O)N2CCCCCC2)c2cccnc21; 92.4
O=C(Cn1c(-c2ccccn2)nc2ccccc21)NCCN1CCOCC1; 95

Ask: // lookup viability at 28.5 h, 10 µM for `COc1ccc2c(c1)C(=O)CC1(CCN(C(=O)/C=C/c3ccc(C)cc3)CC1)O2`
Result: 98.3

Ask: // lookup viability at 28.5 h, 10 µM for `COc1ccccc1OC(=O)c1ccccc1Cl`
Result: 81.4

Ask: // lookup viability at 28.5 h, 10 µM for Cc1nnc2n1-c1ccccc1SC(c1ccccc1)C2 (stereo not shown)
Result: 92.9

Ask: // lookup viability at 28.5 h, 10 µM for `COc1ccc(-n2cc(-c3ccc(C(F)(F)F)cc3)nn2)cc1OC`
Result: 96.8

Ask: // lookup viability at 28.5 h, 10 µM for `CC(=O)N1CCOc2ccccc21`
Result: 92.7

----------
# procedure details: in vitro
# condition set: human, hela cells, % viability
experimental readout: viability at 28.5 h, 10 µM (%)
The reply should be a number in %, with the unit left off.

Recorded results for 5 compounds are shown here.
CCCn1c(SCC(=O)N2CCc3ccccc32)nc(O)cc1=O; 95.4
Oc1cc(C(F)(F)F)nc(CCc2ccc(Cl)cc2)n1; 107
CN(CC(=O)Nc1cc2ccccc2c(N2CCNCC2)n1)C(=O)c1ccccc1 [CBK028421T]; 93
Cc1cc(=O)n2ncnc2n1COCCO; 97.4
Nc1nonc1C(=O)NCCNCc1cccs1; 95.2

Ask: // lookup viability at 28.5 h, 10 µM for Cc1ccc(OCc2ccccc2)c(C(CCN(C(C)C)C(C)C)c2ccccc2)c1 (stereo not shown)
Result: 108

Ask: // lookup viability at 28.5 h, 10 µM for `N=c1c2c3c(sc2ncn1CCCN1CCOCC1)CCCC3`
Result: 94.6

Ask: // lookup viability at 28.5 h, 10 µM for `CC(C)C(=O)Nc1cccc(C(=O)Nc2nnc(C(F)(F)F)s2)c1`
Result: 107

Ask: // lookup viability at 28.5 h, 10 µM for C=CCC1c2cccc(C(=O)O)c2C(=O)N1c1ccc(F)cc1 (stereo not shown)
Result: 94.1

Ask: // lookup viability at 28.5 h, 10 µM for `COc1ccc(OCCOCCN2CCOCC2)cc1`
Result: 91.3

----------
# procedure details: in vitro
# condition set: human, hela cells, % viability
viability at 28.5 h, 10 µM reference
The reply should be a number in %, with the unit left off.

Recorded results for 3 compounds are shown here.
c1ccc2c(c1)OCC(c1nn3c(Cn4cnc5ccccc54)nnc3s1)O2 (stereo not shown); 81.4
O=C(OCc1ccc(Sc2ccc([N+](=O)[O-])cc2Cl)cc1)c1cnccn1; 93.4
CC1(C)[C@H](Cc2cc(CC3CCCCC3)on2)C[C@@H]1NC(=O)C1CCCC1; 84.7

Ask: // lookup viability at 28.5 h, 10 µM for `COc1ccc(OC)c(-c2cc(C(=O)O)c(C)o2)c1`
Result: 97.9

Ask: // lookup viability at 28.5 h, 10 µM for `Cc1cc(C(=O)O)c2[nH]c3c(c2c1)CCCC3`
Result: 95.5

Ask: // lookup viability at 28.5 h, 10 µM for `C=CCOc1ccc(Cl)cc1CNc1cccc(C(=O)O)c1`
Result: 96.6

Ask: // lookup viability at 28.5 h, 10 µM for CN(Cc1ccccc1)C(=O)c1c[nH]nc1C1CCCCN1Cc1ccccc1Cl (stereo not shown)
Result: 88.1

Ask: // lookup viability at 28.5 h, 10 µM for `COc1ccccc1CNCc1ccc(CNC(=O)OC(C)(C)C)cc1`
Result: 100

Ask: // lookup viability at 28.5 h, 10 µM for `Nn1c(CSc2ccccn2)nnc1CSc1ccccn1`
Result: 90.8

Ask: // lookup viability at 28.5 h, 10 µM for `C[C@@H](Cn1nnc2ccccc21)NC(=O)c1cccs1`
Result: 82.3

----------
# procedure details: in vitro
# condition set: human, hela cells, % viability
viability at 28.5 h, 10 µM reference
The reply should be a number in %, with the unit left off.

Recorded results for 4 compounds are shown here.
c1csc(-c2nc3[nH]c4ccccc4n3n2)c1; 102
CC(=O)NS(=O)(=O)c1ccc(NC(=N)Nc2nc(C)cc(C)n2)cc1 [CBK263117C]; 90.1
Cn1cc(Nc2nc(-c3ccc(CCNS(C)(=O)=O)cc3)cs2)cn1; 109
CCCN1CC(NS(=O)(=O)c2ccnn2CCC)CC1=O (centres unmarked); 92.9

Note: attention shifts to another entry.
Ask: // lookup viability at 28.5 h, 10 µM for `COc1cccc(OC)c1-c1cn2ccnc2c(NCCc2ccccn2)n1`
Result: 109

----------
viability at 28.5 h, 10 µM reference
# procedure details: in vitro
# condition set: human, hela cells, % viability

Recorded results for 3 compounds are shown here.
Cn1[nH]c(CO)c(Cc2c(Cl)cccc2Cl)c1=O [CBK092278T]; 95.4%
Cc1ccc(C(=O)NNC(=O)c2cccnc2)cc1; 94%
Cc1ccc(CN(C(=O)/C=C/C(=O)O)C(C)(C)C)cc1; 91.5%

Ask: // lookup viability at 28.5 h, 10 µM for `O=C(Cc1c[nH]c2ccccc12)NC1CCCC1`
Result: 76.1%

Ask: // lookup viability at 28.5 h, 10 µM for `O=C(Nc1ccc(F)cc1)c1cccc(NS(=O)(=O)c2cc(Br)c(Cl)s2)c1`
Result: 93.4%

Ask: // lookup viability at 28.5 h, 10 µM for Cc1cccc(-n2c(C3CCCNC3=O)n[nH]c2=S)c1 (stereo not shown)
Result: 89%

Ask: // lookup viability at 28.5 h, 10 µM for `CCOC(=O)CSc1c2cc3c(nc2nc(=O)n1Cc1ccccc1)CC(C)(C)OC3`
Result: 94.3%

Ask: // lookup viability at 28.5 h, 10 µM for Cc1n[nH]c(C)c1CCCCCOc1ccccc1 [CBK027211C]
Result: 84.3%

Ask: // lookup viability at 28.5 h, 10 µM for `CS(=O)(=O)Nc1nccnc1N1CCN(Cc2ccc([N+](=O)[O-])cc2)CC1`
Result: 103%

Ask: // lookup viability at 28.5 h, 10 µM for `Cc1cc(NC(=O)COc2ccccc2)nc2c1c(=O)oc1ccccc12`
Result: 99.8%

Ask: // lookup viability at 28.5 h, 10 µM for `Cc1nn(CC(=O)OC2CCCCC2)c(=O)c2cc3ccsc3n12`
Result: 82.5%

Ask: // lookup viability at 28.5 h, 10 µM for `CC(=O)c1ccc(S(=O)(=O)NCC2CC2)cc1`
Result: 100%

Ask: // lookup viability at 28.5 h, 10 µM for `Cc1cc(I)cnc1NC(=O)CSc1ccc(Cl)cc1`
Result: 94.3%

Ask: // lookup viability at 28.5 h, 10 µM for `C#CCNC(=O)C1CCN(c2nc3ccccc3n2C)CC1`
Result: 89.7%
